- Target Or System: SARS2 protease (Severe acute respiratory syndrome coronavirus 2, UniProt P0DTD1)
- Test Summary: SARS-CoV-2 protease inhibition assay (SARS2 FRET protease assay)
- Format: biochemical
- Run Parameters: SARS-CoV-2 protease 25 nM, FRET, peptide substrate 1.3 μM, 30 minutes at 30° C., compounds 20 μM to 1.0 nM; read-out: IC50
pIC50: −log10 of the molar value.
I would appreciate it if you labelled entries Satisfied when pIC50 is 6 or higher, otherwise Not satisfied.

{"Compound": "CCOP(=O)(OCC)C(O)[C@H](CC1CCNC1=O)NC(=O)[C@H](Cc1ccccc1)NC(=O)OCc1cccc(Cl)c1 (stereo partly drawn)", "Target Or System": "SARS2 protease (Severe acute respiratory syndrome coronavirus 2, UniProt P0DTD1)", "Cat": "Not satisfied"}
{"Compound": "CCNC(=O)C(=O)[C@H](C[C@@H]1CCNC1=O)NC(=O)[C@H](CC1CCCCC1)NC(=O)OC(c1ccccc1)C(C)(C)c1cccc(Cl)c1 (stereo partly drawn)", "Target Or System": "SARS2 protease (Severe acute respiratory syndrome coronavirus 2, UniProt P0DTD1)", "Cat": "Satisfied"}
{"Compound": "CC(C)C[C@H](NC(=O)OC(c1cccc(Cl)c1)C1(c2cccc(Cl)c2)CC1)C(=O)N[C@H](C=O)C[C@@H]1CCNC1=O (stereo partly drawn)", "Target Or System": "SARS2 protease (Severe acute respiratory syndrome coronavirus 2, UniProt P0DTD1)", "Cat": "Satisfied"}
{"Compound": "CC(C)C[C@H](NC(=O)N(Cc1ccccc1)C1CCN(C(=O)OC(C)(C)C)CC1)C(=O)N[C@@H](C[C@@H]1CCNC1=O)C(=O)C(=O)NC1CC1", "Target Or System": "SARS2 protease (Severe acute respiratory syndrome coronavirus 2, UniProt P0DTD1)", "Cat": "Not satisfied"}
{"Compound": "COc1cccc2[nH]c(C(=O)N[C@@H](CC3CCCCC3)C(=O)NC(C=O)CC3CC4(CCN(C(C)=O)CC4)NC3=O)cc12 (stereo partly drawn)", "Target Or System": "SARS2 protease (Severe acute respiratory syndrome coronavirus 2, UniProt P0DTD1)", "Cat": "Satisfied"}
{"Compound": "CC(C)C[C@H](NC(=O)OC1(Cc2ccccc2)CC1)C(=O)N[C@@H](C[C@@H]1CCNC1=O)C(O)S(=O)(=O)O (stereo partly drawn)", "Target Or System": "SARS2 protease (Severe acute respiratory syndrome coronavirus 2, UniProt P0DTD1)", "Cat": "Satisfied"}
{"Compound": "CC(C)C[C@H](NC(=O)O[C@@H](c1cccc(F)c1)C(C)(C)c1cccc(Cl)c1)C(=O)N[C@H](C=O)C[C@@H]1CCNC1=O", "Target Or System": "SARS2 protease (Severe acute respiratory syndrome coronavirus 2, UniProt P0DTD1)", "Cat": "Satisfied"}
{"Compound": "CC(C)C[C@H](NC(=O)OC1(Cc2cccc(Cl)c2)CCC1)C(=O)NC(C=O)CC1CC2(CCOCC2)NC1=O (stereo partly drawn)", "Target Or System": "SARS2 protease (Severe acute respiratory syndrome coronavirus 2, UniProt P0DTD1)", "Cat": "Satisfied"}
{"Compound": "O=C(N[C@@H](CC1CCCCC1)C(=O)NC(CC1CC2(CCOCC2)NC1=O)C(=O)C(=O)NC1CC1)OC1CCCC1Cc1cccc(Cl)c1 (stereo partly drawn)", "Target Or System": "SARS2 protease (Severe acute respiratory syndrome coronavirus 2, UniProt P0DTD1)", "Cat": "Not satisfied"}
{"Compound": "CC1(C)CC(CC(C=O)NC(=O)[C@H](CC2CCCCC2)NC(=O)OC(c2cccc(F)c2)C(C)(C)c2cccc(Cl)c2)C(=O)N1 (stereo partly drawn)", "Target Or System": "SARS2 protease (Severe acute respiratory syndrome coronavirus 2, UniProt P0DTD1)", "Cat": "Satisfied"}
{"Compound": "CCN1CCN(C(=O)C(=O)[C@H](C[C@@H]2CCNC2=O)NC(=O)[C@H](CC(C)C)NC(=O)OC(c2ccccc2)C(C)(C)c2cccc(Cl)c2)CC1 (stereo partly drawn)", "Target Or System": "SARS2 protease (Severe acute respiratory syndrome coronavirus 2, UniProt P0DTD1)", "Cat": "Not satisfied"}
{"Compound": "CC(C)C[C@H](NC(=O)OC1(Cc2ccccc2)CCC1)C(=O)N[C@H](C=O)C[C@@H]1CCNC1=O", "Target Or System": "SARS2 protease (Severe acute respiratory syndrome coronavirus 2, UniProt P0DTD1)", "Cat": "Satisfied"}
{"Compound": "O=C(N[C@@H](CC1CCCCC1)C(=O)N[C@@H](CC1CC2(CCCCC2)NC1=O)C(=O)CO)OCc1cccc(Cl)c1 (stereo partly drawn)", "Target Or System": "SARS2 protease (Severe acute respiratory syndrome coronavirus 2, UniProt P0DTD1)", "Cat": "Not satisfied"}
{"Compound": "CN(C(=O)CC[C@@H](C=O)NC(=O)[C@H](CC1CCCCC1)NC(=O)OCc1cccc(Cl)c1)C1(Cc2ccccc2)CC1", "Target Or System": "SARS2 protease (Severe acute respiratory syndrome coronavirus 2, UniProt P0DTD1)", "Cat": "Not satisfied"}
{"Compound": "CC(=O)N1CCC2(CC1)CC(CC(C=O)NC(=O)[C@H](CC1CCCCC1)NC(=O)c1cc3cc(Cl)ccc3[nH]1)C(=O)N2 (stereo partly drawn)", "Target Or System": "SARS2 protease (Severe acute respiratory syndrome coronavirus 2, UniProt P0DTD1)", "Cat": "Satisfied"}
{"Compound": "CC(=O)N1CCC2(CC1)CC(CC(NC(=O)C(Cc1ccccc1)NC(=O)c1cnc3ccccc3n1)C(=O)C(N)=O)C(=O)N2 (stereo in doubt)", "Target Or System": "SARS2 protease (Severe acute respiratory syndrome coronavirus 2, UniProt P0DTD1)", "Cat": "Not satisfied"}
{"Compound": "CC(C)C[C@H](NC(=O)OC(Cc1ccccc1)c1ccccc1)C(=O)N[C@@H](C[C@@H]1CCNC1=O)C(=O)C(=O)NCc1ccccn1 (stereo partly drawn)", "Target Or System": "SARS2 protease (Severe acute respiratory syndrome coronavirus 2, UniProt P0DTD1)", "Cat": "Not satisfied"}
{"Compound": "CC(C)C[C@H](NC(=O)OC1(Cc2cccnc2)CC1)C(=O)N[C@H](C=O)C[C@@H]1CCNC1=O", "Target Or System": "SARS2 protease (Severe acute respiratory syndrome coronavirus 2, UniProt P0DTD1)", "Cat": "Not satisfied"}
{"Compound": "CC(C)(c1cccc(Cl)c1)[C@@H](OC(=O)N[C@@H](CC1CCCCC1)C(=O)N[C@@H](C[C@@H]1CCNC1=O)C(=O)C(N)=O)c1cccc(F)c1", "Target Or System": "SARS2 protease (Severe acute respiratory syndrome coronavirus 2, UniProt P0DTD1)", "Cat": "Not satisfied"}
{"Compound": "CC(C)C[C@H](NC(=O)OC(Cc1ccccc1)C1CCCCC1)C(=O)N[C@H](C=O)C[C@@H]1CCNC1=O (stereo partly drawn)", "Target Or System": "SARS2 protease (Severe acute respiratory syndrome coronavirus 2, UniProt P0DTD1)", "Cat": "Satisfied"}
{"Compound": "CCCCCOC(=O)N[C@@H](CC1CCCCC1)C(=O)N[C@@H](CCC(=O)N1CCOc2ccccc2C1)C(O)P(=O)(OCC)OCC (stereo partly drawn)", "Target Or System": "SARS2 protease (Severe acute respiratory syndrome coronavirus 2, UniProt P0DTD1)", "Cat": "Not satisfied"}
{"Compound": "CC(C)C[C@H](NC(=O)OC(c1ccccc1)C(C)(C)c1cccc(Cl)c1)C(=O)N[C@@H](C[C@@H]1CCNC1=O)C(=O)C(=O)N1CCCCC1 (stereo partly drawn)", "Target Or System": "SARS2 protease (Severe acute respiratory syndrome coronavirus 2, UniProt P0DTD1)", "Cat": "Not satisfied"}

* * *

Entries annotated with measured pIC50
- Target Or System: SARS2 protease (Severe acute respiratory syndrome coronavirus 2)
- Test Summary: SARS-CoV-2 protease inhibition assay (SARS2 FRET protease assay)
- Format: biochemical
- Run Parameters: SARS-CoV-2 protease 25 nM, FRET, peptide substrate 1.3 μM, 30 minutes at 30° C., compounds 20 μM to 1.0 nM; read-out: IC50
pIC50: −log10 of the molar value.
Observable: pIC50

{"Compound": "CCOP(=O)(OCC)C(O)C(CC1CC2(CCN(C(C)=O)CC2)NC1=O)NC(=O)[C@H](CC(C)C)NC(=O)OCC(C)(C)c1cccc(Cl)c1 (stereo partly drawn)", "Observable": "pIC50", "Meas Value": 5.04}
{"Compound": "O=C(N[C@@H](CC1CCCCC1)C(=O)N[C@@H](CC1CC2(CCCCC2)NC1=O)C(=O)C(=O)N1CCCC1)c1cc2ccccc2[nH]1 (stereo partly drawn)", "Observable": "pIC50", "Meas Value": 4.96}
{"Compound": "NC(=O)C(=O)C(CC1CC2(CCCCC2)NC1=O)NC(=O)[C@H](CC1CCCCC1)NC(=O)c1cc2ccccc2[nH]1 (stereo partly drawn)", "Observable": "pIC50", "Meas Value": 6.10}
{"Compound": "CC(C)(c1cccc(Cl)c1)C(OC(=O)N[C@@H](CC1CCCCC1)C(=O)N[C@@H](C[C@@H]1CCNC1=O)C(=O)C(=O)NC1CC1)c1ccc(F)cc1 (stereo partly drawn)", "Observable": "pIC50", "Meas Value": 5.69}
{"Compound": "CC(C)C[C@H](NC(=O)OC(C)Cc1ccccc1)C(=O)N[C@@H](C[C@@H]1CCNC1=O)C(O)S(=O)(=O)O (stereo partly drawn)", "Observable": "pIC50", "Meas Value": 6.92}
{"Compound": "CC(C)(c1cccc(Cl)c1)C(OC(=O)N[C@@H](CC1CCCCC1)C(=O)N[C@H](C=O)C[C@@H]1CCNC1=O)c1ccccc1Cl (stereo partly drawn)", "Observable": "pIC50", "Meas Value": 7.61}
